- Study system: S. pyogenes SKKanGAS, kanamycin survival, BacTiterGlo, 6 h
- Experimental protocol: S. pyogenes SKKanGAS kanamycin growth inhibitors – SKKanGAS strain, luminescence, dose confirmation, streptokinase promoter inhibitor project, dose response (AID 1902);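 further: lower survival reflects blocked streptokinase promoter driving kanamycin resistance gene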
pEC50: −log10 of the molar value.
Assay metric: pEC50

- CCCCCCCCCCCCN1[C@@H](CC(=O)O)c2cc(C(F)(F)F)ccc2S1(=O)=O: 5.61
- CC[C@H]1OC(=O)[C@H](C)[C@@H](O[C@H]2C[C@@](C)(OC)[C@@H](O)[C@H](C)O2)[C@H](C)[C@@H](O[C@@H]2O[C@H](C)C[C@H](N(C)C)[C@H]2O)[C@](C)(O)C[C@@H](C)[C@@H]2N[C@@H](COCCOC)O[C@H]([C@H]2C)[C@]1(C)O: > 7.22
- Cc1nnc(SCC2=C(C(=O)O)N3C(=O)C(NC(=O)Cn4nc(C(F)F)c(Cl)c4C)C3SC2)s1 (stereo not drawn): > 7.22

* * *

- Study system: S. pyogenes SKKanGAS, kanamycin survival, BacTiterGlo, 6 h
- Experimental protocol: S. pyogenes SKKanGAS kanamycin growth inhibitors – SKKanGAS strain, luminescence, dose confirmation, streptokinase promoter inhibitor project, dose response (AID 1902)
Calls of active or inactive are those of the source.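 How the source made its calls: active means EC50 no more than a set limit of log units above the highest dose; inactive means the rest.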
Classes used: active, inactive

* O=C(Nc1ccc(OCC(F)(F)C(F)F)c(C(F)(F)F)c1)c1ccc(Cl)cc1 | active
* O=C(NC(=S)N1CCN(c2ccc(Cl)cc2[N+](=O)[O-])CC1)c1cccs1 | active
* Cc1ccc(NC(=O)NCc2ccccn2)cc1Cl | inactive
* Oc1ccc(Br)cc1/C=N/Nc1nc(N2CCCCC2)nc(N2CCOCC2)n1 | active
* Cn1cc(C(=O)c2ccc(Cl)cc2Cl)cc1C(=O)N/N=C(\N)COc1ccc(Cl)cc1Cl | active
* Cc1cc(C)c(-c2cc(NC(=O)COC(=O)c3ccc(CO)cc3)n(-c3ccccc3)n2)cc1C | active
* CCCCc1c(C)nn(-c2nnc3c4ccccc4n(CC)c3n2)c1C | active
* Nc1c(Cl)cc(C2=NCCn3c2c2ccc([N+](=O)[O-])cc2[n+]3[O-])cc1Cl | active
* CC/C(=C(\c1ccccc1)c1ccc(OCCN(C)C)cc1)c1ccccc1 | active
* Cc1ccc2nc(N3C(=O)C(O)=C(C(=O)c4cc5ccccc5o4)C3c3cccs3)sc2c1 (stereo not given) | active

* * *

- Study system: S. pyogenes SKKanGAS, kanamycin survival, BacTiterGlo, 6 h
- Experimental protocol: S. pyogenes SKKanGAS kanamycin growth inhibitors – SKKanGAS strain, luminescence, dose confirmation, streptokinase promoter inhibitor project, dose response (AID 1902)
Activity calls are given as the source filed them.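 The calls were made as follows: active = EC50 no more than a set limit of log units above the highest dose; inactive = the rest.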
Classes used: active, inactive

- Cc1[nH]n(-c2ccccc2)c(=O)c1N=Nc1c(O)cc(S(=O)(=O)N(C)C)c2ccccc12: active
- Cc1ccc(-c2csc(NC(=O)c3ccc([N+](=O)[O-])o3)n2)cc1: active
- Cc1ccc(-c2csc(-c3c[nH]c4ccccc34)n2)c(C)c1: active
- O=C(Cc1ccc(Br)cc1)Nc1nc2ccccc2[nH]1: active
- CC12CCC(C(=O)NNC(=O)c3ccccc3)(OC1=O)C2(C)C (configuration not stated): inactive
- CC(C)(C)c1ccc(OCCCC(=O)NC2=NCCS2)cc1: active
- COc1ccccc1CNC(=O)c1ccc(-c2ccccc2Cl)o1: active
- CN1CCN(C2Cc3ccc(Cl)cc3Sc3ccc(F)cc32)CC1 (configuration not stated): active
- COCCCNC(=S)NNC(=S)Nc1cccc(Cl)c1: inactive
- O=[N+]([O-])c1c(NCCCO)cc(Sc2nc3ccccc3s2)c2nonc12: active
- COC(=O)c1cc(-c2ccc(OC)cc2F)nc2nc(SC)[nH]c(=O)c12: active
- CC(C)Cn1c(=O)c(C(=O)Nc2ccncc2)c(O)c2ccccc21: active
- O=C(O)CCCN1C(=O)/C(=C\c2ccc(-c3nc4ccccc4s3)o2)SC1=S: active
- CCSc1nnc(NC(=O)c2nc(-c3ccccc3)n(-c3ccccc3)n2)s1: active
- Cc1ccc(C(C)C)cc1OCC(=O)Nc1ccccc1N1CCCC1: active
- O=C(/C=C/c1ccccc1)NC(NC(=S)Nc1ccc(Cl)cc1)C(Cl)(Cl)Cl (configuration not stated): active
- CCCCSc1nc(C)cc(SCC(=O)N/N=C/c2cccc(OC)c2O)n1: active
- O=C1NC(=Nc2ccc(Cl)cc2)SC1Cc1cc(Cl)ccc1Cl (configuration not stated): active
- COc1ccc(/C=C/C(=O)NC(=S)NNC(=O)c2ccco2)cc1: active
- COc1ccc(/C=C/C(=O)NC(=S)NNC(=O)c2cnccn2)cc1: active
- C=C1SC(=Nc2ccccc2Cl)N(C(=O)c2sc3ccccc3c2Cl)C12CCCCC2: active
- CCCc1cc(=O)n2[nH]c(C)c(-c3ccc(Cl)cc3)c2n1: active

* * *

- Study system: S. pyogenes SKKanGAS, kanamycin survival, BacTiterGlo, 6 h
- Experimental protocol: S. pyogenes SKKanGAS kanamycin growth inhibitors – SKKanGAS strain, luminescence, dose confirmation, streptokinase promoter inhibitor project, dose response (AID 1902);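 further: lower survival reflects blocked streptokinase promoter driving kanamycin resistance gene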
The source made the active and inactive calls.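 Rule for the calls: active = EC50 no more than a set limit of log units above the highest dose; inactive = the rest.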
Labels: true (1) = active, false (0) = inactive

• Cc1ccc2[nH]c(C(=O)N/N=C/c3ccccc3O)c(C)c2c1 = true (1)
• O=c1cc(-c2ccccc2Cl)oc2c(NS(=O)(=O)c3cc(Cl)cc(Cl)c3O)ccc(O)c12 = true (1)
• N/C(=N\NC(=O)c1sccc1OCc1ccc(Cl)cc1Cl)c1ccccn1 = true (1)
• COc1cccc(/C=N/Nc2cc(N3CCOCC3)ncn2)c1O = true (1)
• Cc1oc2c(c1C(=O)NCc1cccnc1)C(=O)c1ccccc1C2=O = true (1)
• COc1ccccc1NS(=O)(=O)c1cc(NC(=S)NCC2CCCO2)ccc1C (stereo unspecified) = false (0)
• O=C1NC(=O)/C(=C/c2ccccc2Oc2ccc(Cl)cc2)S1 = true (1)
• Clc1ccccc1C(c1ccccc1)(c1ccccc1)n1ccnc1 = true (1)
• Cc1ccc(-c2cc3nc(-c4ccc(Br)cc4)cc(N)n3n2)cc1 = true (1)
• CC(C)C[C@H](NC(=O)c1[nH]cnc1C(=O)N[C@@H](C)c1ccccc1)C(=O)OCc1ccccc1 = true (1)
• Cc1cc(C)n(-c2nc(C)nc(NCc3ccccc3)n2)n1 = false (0)

* * *

- Study system: S. pyogenes SKKanGAS, kanamycin survival, BacTiterGlo, 6 h
- Experimental protocol: S. pyogenes SKKanGAS kanamycin growth inhibitors – SKKanGAS strain, luminescence, dose confirmation, streptokinase promoter inhibitor project, dose response (AID 1902);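 further: lower survival reflects blocked streptokinase promoter driving kanamycin resistance gene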
The source made the active and inactive calls.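 The calls were made as follows: active = EC50 no more than a set limit of log units above the highest dose; inactive = the rest.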
Possible outcomes: yes (1) for active, no (0) for inactive

* COc1ccc(OC)c(NC(=O)NC2CCCc3ccccc32)c1 (stereo not given) | no (0)
* O=C(N/N=C/c1ccccn1)c1ccc(Cl)c(Cl)c1 | yes (1)
* COc1cc(C(=O)Nc2ccc(-c3nc4cc(C)ccc4o3)c(O)c2)cc(OC)c1OC | yes (1)
* Cc1cccc(Nc2nc(N)nc(CN3CCN(c4ccccc4F)CC3)n2)c1 | yes (1)
* COc1ccccc1NC(=O)Nc1nc(CC(=O)Nc2cc(F)ccc2F)cs1 | yes (1)
* COc1cc(OC)cc(C(=O)Nc2nnc(NC(=S)Nc3ccccc3)s2)c1 | yes (1)
* O=C1Nc2cc(C(=O)N3CCN(c4ccccn4)CC3)ccc2S/C1=C\c1ccccc1 | yes (1)
* O=C(O)CCCN1C(=O)/C(=C/c2cn(-c3ccccc3)nc2-c2cccs2)SC1=S | yes (1)
* CCCCn1c(O)c(N=NC(=O)c2ccccc2NS(=O)(=O)c2cccs2)c2ccccc21 | yes (1)
* O=C(/C(N=Nc1cccc([N+](=O)[O-])c1)=C(/O)c1ccc(Br)cc1)C(F)(F)F | yes (1)

* * *

Recorded EC50 values for a group of molecules are listed next.
- Study system: S. pyogenes SKKanGAS, kanamycin survival, BacTiterGlo, 6 h
- Experimental protocol: S. pyogenes SKKanGAS kanamycin growth inhibitors – SKKanGAS strain, luminescence, dose confirmation, streptokinase promoter inhibitor project, dose response (AID 1902);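 further: lower survival reflects blocked streptokinase promoter driving kanamycin resistance gene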
Assay metric: EC50

• COc1cccc(NP(=O)(Oc2ccc(Cl)cc2)Oc2ccc(Cl)cc2)c1 = 3220 nM
• COc1ccc(Cl)cc1NC(=O)CN1CCC(n2nnc3cc(C)ccc32)CC1 = 10800 nM
• Oc1c(C(c2ccccn2)N2CCCCC2)cc(Cl)c2cccnc12 (stereo unspecified) = 8880 nM
• O=C(O)c1ccc(N/N=C/c2ccc(-c3ccc(Cl)cc3Cl)o2)cc1 = 1940 nM
• CCc1nc(N)nc(N)c1-c1ccc(Cl)cc1 = 3990 nM
• CC/C(=C\C1CCCCC1)C(NP(=O)(c1ccccc1)c1ccccc1)c1ccccc1 (stereo unspecified) = 1140 nM
• Cc1cc(C)c2nc(NNC(=O)c3ccc(S(=O)(=O)N4CCc5ccccc5C4)cc3)sc2c1 = 538 nM
• COc1ccc(OC)c2[nH]c(C(=O)N/N=C/c3ccccc3O)cc12 = 1640 nM
• CCn1cc(C(=O)O)c(=O)c2cc(F)c(N3CCN(C(=S)Nc4ccc(OC)cc4)CC3)cc21 = 3180 nM
• Cn1c2ccccc2c(=O)c2c(=O)n(C3CCCCC3)c(-c3cccs3)nc21 = 7030 nM
• CC(=O)OCC1=C(C(=O)O)N2C(=O)C(NC(=O)Cn3nc(C(F)F)c(Cl)c3C)C2SC1 (stereo unspecified) = < 60 nM
• C/C(=N\N=C(/N)SC1CC(=O)N(c2ccc(Br)cc2)C1=O)c1cccs1 (stereo unspecified) = 5030 nM
• CC(C)C1Cc2c(sc3[nH]c(=S)n(Cc4ccccc4)c(=O)c23)CO1 (stereo unspecified) = 2930 nM
• COc1cc(/C=C/c2ccc3cccc(O)c3n2)c(Br)cc1O = 350 nM
• COc1ccc(C(=O)/C=C/c2ccc(-c3ccccc3)cc2)cc1CSCC(=O)O = 5510 nM
• C/C(=N\NC(=O)c1ccc(C)cc1)c1c(C)[nH]n(-c2ccccc2)c1=O = 2150 nM
• Cc1cc(C(=O)Nc2nc(-c3ccccn3)cs2)ccc1[N+](=O)[O-] = 1690 nM
• COCCCn1c(=O)/c(=C\c2ccccc2OC(C)C)s/c1=C(/C#N)C(=O)Nc1ccc(C(=O)O)cc1 = 2020 nM
• COc1cc(OC)cc(C(=O)Nc2nc3ccccc3[nH]2)c1 = 12800 nM
• COc1cccc(NC(=S)NN=C2CCCCCC2)c1 = 1770 nM
• Cc1cc(N2C(=O)C(O)=C(C(=O)c3cc4ccccc4o3)C2c2ccc(Br)cc2)no1 (stereo unspecified) = 1240 nM
